# Target Or Test System: T1, GST-BANP BEN (human, UniProt Q8N9N5 205-325)
# T1 sequence: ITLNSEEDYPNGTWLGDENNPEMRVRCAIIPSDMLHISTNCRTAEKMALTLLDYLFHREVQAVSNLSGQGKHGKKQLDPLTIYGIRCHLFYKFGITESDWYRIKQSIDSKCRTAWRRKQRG
# Assay Details: ITC; ITC: 20 mM Tris pH 7.5, 200 mM NaCl, 2 mM beta-mercaptoethanol, 20 C; EMSA: 20 mM Tris pH 7.0, 200 mM NaCl, 2 mM DTT, 4 C, 1.2% agarose in TAE
# Applied Conditions: protein: recombinant; tags: N-terminal GST fusion; chain copies: 2; blunt, self-complementary
Endpoint Label: Kd (nM)
Report as a plain number; the unit nM is understood.

>>> reported("12-mCGCG (dsDNA, 5-methyl-C at position 5 of each strand (palindrome; called hemi-methylated, one CpG methylated)) DNA 1: ATCTCGCGAGAT DNA 2: ATCTCGCGAGAT")
3500

Could you now consider this next binder?
Give the measured Kd of 12-CGCG (dsDNA) DNA 1: ATCTCGCGAGAT DNA 2: ATCTCGCGAGAT .
2300
